Just for reference, the supplement of paper PMC11451515 is where these values come from.

system: SEM cells; assay: cell viability relative to DMSO control; higher = less cytotoxic; settings: HPLM + 10% dialyzed FBS; 48 h; 15.4 µM
observation type: cell viability

// below: answered molecules
                                   molecule  measured_value
0         O=C(/C=C/c1ccc(O)cc1)c1ccc(O)cc1O           81.2%
1  OCCC#Cc1nc(-c2ccc(F)cc2)c(-c2ccncc2)n1CCCc1ccccc1            105%
2  C[C@@H]1C[C@H]2[C@@H]3\C=C(C)/C4=C/C5=C(C[C@]4(C)[C@H]3[C@@H](O)C[C@]2(C)[C@@]1(O)C(=O)CO)C=N[N]5C6=CC=CC=C6           57.7%

**Query** Requested read-out cell viability, target or system SEM cells, entry NC(=O)Nc1cc(-c2cccc(F)c2)sc1C(=O)N[C@H]1CCCNC1
**Result** 19%

**Query** Requested read-out cell viability, target or system SEM cells, entry CCN1CCCC1CNC(=O)c1cc([S+](N)(=O)[O-])ccc1OC (stereo not given)
**Result** 69.1%

---

system: NOMO1; assay: cell viability relative to DMSO control; higher = less cytotoxic; conditions: RPMI 5 mM glucose + 10% FBS; 48 h; 0.0632 µM
Readings of cell viability for the listed compounds
Report the value in % with no unit label.

// below: answered compounds
>>> print(df.to_string())
                                   compound  test_system  observation_type  measured_value
0  COC1=CC=C2/C3=N/CCN3\C(=N/C2=C1OC)NC(=O)C4=CC=CN=C4        NOMO1    cell viability             132
1  CC(C)(C)[C@H](NC(=O)c1ccc(N)c(Cl)c1)C(=O)N1CCC[C@H]1C(=O)N[C@H](C#N)CC(=O)O        NOMO1    cell viability             120
2  N[S+](=O)([O-])OC[C@@H]1C[C@@H](n2ccc3c(N[C@H]4CCc5ccccc54)ncnc32)C[C@@H]1O        NOMO1    cell viability             118
3  OC(CN1CCN(c2cccc(Cl)c2)CC1)C(c1ccccc1)c1ccccc1 (configuration not stated)        NOMO1    cell viability             132
4  CC1(C)C(N(O)C(=O)Nc2ccc(Cl)cc2)N(c2ccc(Cl)cc2)C(=O)N1CC(=O)N/N=C/C=C/c1ccc([N+](=O)[O-])o1 (configuration not stated)        NOMO1    cell viability             110

**Query** Please report the recorded cell viability for NC(=O)NO .
**Result** 86.1

**Query** Please report the recorded cell viability for O=C(/C=C/c1ccc(O)cc1)c1ccc(O)cc1O .
**Result** 113

---

tested on: P12-Ichikawa; test: cell viability relative to DMSO control; higher = less cytotoxic; conditions: RPMI 5 mM glucose + 10% FBS; 48 h; 0.0211 µM
Readings of cell viability for the listed molecules
Report the value in % with no unit label.

// below: answered molecules
molecule	unit text	cell viability
CC[C@]1(O)C[C@@H]2CN(CCc3c([nH]c4ccccc34)[C@@](C(=O)OC)(c3cc4c(cc3OC)N(C)[C@H]3[C@@](O)(C(N)=O)[C@H](O)[C@]5(CC)C=CCN6CC[C@]43[C@@H]65)C2)C1	%	98.6
C[C@]12CC[C@H]3[C@@H](CCC/4=C/C(=O)CC[C@]34C)[C@@H]1CC[C@@H]2OC(=O)CCC5CCCC5	%	107
N#C[C@H](O[C@@H]1O[C@H](CO[C@@H]2O[C@H](CO)[C@@H](O)[C@H](O)[C@H]2O)[C@@H](O)[C@H](O)[C@H]1O)c1ccccc1	%	97.5
N#C/C(C(=O)c1ccc(Cl)cc1Cl)=C1/NC(=O)c2ccc(Cl)cc2N1	%	107

**Query** Please report the recorded cell viability for COC(=O)N1CC2(CC2)C[C@H](C(=O)NO)[C@H]1C(=O)N1CCN(c2ccccc2)CC1 .
**Result** 129

**Query** Please report the recorded cell viability for NC/1=N/C(=O)N(/C=N1)[C@@H]2O[C@H](CO)[C@@H](O)[C@H]2O .
**Result** 98.7

**Query** Please report the recorded cell viability for CN(C)C1=C(Br)C=C(C=C1)C\2NC3=C(\C4=C2C(=O)CC(C)(C)C4)C5=CC=CC=C5C=C3 (configuration not stated) .
**Result** 104

---

test system: P12-Ichikawa; assay: cell viability relative to DMSO control; higher = less cytotoxic; conditions: RPMI 5 mM glucose + 10% dialyzed FBS; 48 h; 0.00702 µM
Readings of cell viability for the listed molecules
Report the value in % with no unit label.

                molecule  observation_type  measured_value
0  COC(=O)\C1=C\CCN(C)C1    cell viability              97

**Query** Requested read-out cell viability, target or system P12-Ichikawa, entry C[C@](N)(Cc1ccc(O)c(O)c1)C(=O)O
**Result** 83.5

**Query** Requested read-out cell viability, target or system P12-Ichikawa, entry OC1=CC2=C(C(=C1)O)C(=O)\C(=C(/O2)C3=CC(=C(O)C=C3)O)O
**Result** 113

---

test system: NOMO1; assay: cell viability relative to DMSO control; higher = less cytotoxic; details: RPMI 5 mM glucose + 10% dialyzed FBS; 48 h; 0.19 µM
observation type: cell viability (%)
Report the value in % with no unit label.

// below: answered compounds
>>> df
                                   compound  observation_type  measured_value
0  C[S+](=O)([O-])c1ccc(Oc2cc(F)cc(C#N)c2)c2c1[C@H](O)C(F)(F)C2    cell viability             127
1         CCOC(=O)Nc1ccc(NCc2ccc(F)cc2)nc1N    cell viability             109
2  CC(NCCc1ccc(O)cc1)C(O)c1ccc(O)cc1 (stereo not given)    cell viability             114
3  CCN1CCN(C(=O)Cc2ccc(Nc3ncc(F)c(Nc4ccc(C(=O)Nc5ccccc5Cl)cc4)n3)cc2)CC1    cell viability             103

Lab note: next compound to report on.
**Query** Please report the recorded cell viability for C[C@](N)(Cc1ccc(O)c(O)c1)C(=O)O .
**Result** 85.7

---

Readings of cell viability for the listed molecules
tested on: P12-Ichikawa; experiment: cell viability relative to DMSO control; higher = less cytotoxic; details: RPMI 5 mM glucose + 10% dialyzed FBS; 48 h; 0.00702 µM
Report the value in % with no unit label.

// below: answered molecules
molecule	measured value
N#C/C(C(=O)c1ccc(Cl)cc1Cl)=C1/NC(=O)c2ccc(Cl)cc2N1	107
CCN(c1ccccc1)c1cc(NC)[n+](C)c(C)n1	112

**Query** Please report the recorded cell viability for COC1=CC=C(C=C1O)C/2=C/C(=O)C3=C(O2)C=C(O[C@@H]4O[C@H](CO[C@@H]5O[C@@H](C)[C@H](O)[C@@H](O)[C@H]5O)[C@@H](O)[C@H](O)[C@H]4O)C=C3O .
**Result** 117

**Query** Please report the recorded cell viability for COc1cc(N2CCC(N(C)C)CC2)ccc1Nc1ncc(Cl)c(Nc2ccccc2P(C)(C)=O)n1 .
**Result** 117

**Query** Please report the recorded cell viability for CO/N=C(\C(=O)N[C@@H]1C(=O)N2C(C(=O)OCOC(=O)C(C)(C)C)=C(/C=C\c3scnc3C)CS[C@H]12)c1csc(N)n1 .
**Result** 102

**Query** Please report the recorded cell viability for O=C(/C=C/c1ccc(O)cc1)c1ccc(O)cc1O .
**Result** 109

**Query** Please report the recorded cell viability for CC(C)(O)/C=C\C(=O)[C@](C)(O)[C@H]1[C@H](O)C[C@]2(C)[C@@H]3CC=C4[C@@H](C=C(O)C(=O)C4(C)C)[C@]3(C)C(=O)C[C@@]12C .
**Result** 93.9

**Query** Please report the recorded cell viability for COc1cc(C(=O)NS(=O)(=O)c2ccccc2C)ccc1Cc1cn(C)c2ccc(NC(=O)OC3CCCC3)cc12 .
**Result** 76.6

**Query** Please report the recorded cell viability for CCOC(=O)/C=C/[C@H](C[C@@H]1CCNC1=O)NC(=O)[C@@H](CC(=O)[C@@H](NC(=O)c1cc(C)on1)C(C)C)Cc1ccc(F)cc1 .
**Result** 118

**Query** Please report the recorded cell viability for C#CCN[C@@H]1CCc2ccccc21.CS(=O)(=O)O .
**Result** 94.9

**Query** Please report the recorded cell viability for Cc1noc(-c2ccc(CSCCC(=O)O)cc2)c1NC(=O)OC(C)c1ccccc1Cl (stereo not given) .
**Result** 91.7

**Query** Please report the recorded cell viability for COc1cccc2c1[C@]13CCN(CC4CC4)[C@H](C2)[C@]1(OC)CCC(=O)C3 .
**Result** 68.7

**Query** Please report the recorded cell viability for C[C@@H](O)[C@@H]1NC(=O)[C@H](CCCCN)NC(=O)[C@@H](Cc2c[nH]c3ccccc23)NC(=O)[C@H](Cc2ccccc2)NC(=O)[C@@H](NC(=O)[C@H](N)Cc2ccccc2)CSSC[C@@H](C(=O)N[C@H](CO)[C@@H](C)O)NC1=O .
**Result** 85.7

**Query** Please report the recorded cell viability for Cc1onc(-c2ccccc2)c1C(=O)N[C@@H]1C(=O)N2[C@@H]1SC(C)(C)[C@@H]2C(=O)[O-].[Na+] .
**Result** 131

**Query** Please report the recorded cell viability for CN1CCN(C(=O)O[C@H]2c3nccnc3C(=O)N2c2ccc(Cl)cn2)CC1 .
**Result** 98.9
